Hello, the source for this data is patent US20180258181A1, in case you need it.

Catalogue of binders with associated koff
- system: T1, human mesothelin (recombinant, soluble, purified; 40 kDa C-terminal polypeptide of the mesothelin precursor) (human, UniProt Q13421 296-598, limits assumed)
- T1 construct: also called soluble mesothelin
- T1 sequence (Q13421 other isoform, or with tags, fused parts or gaps limits assumed): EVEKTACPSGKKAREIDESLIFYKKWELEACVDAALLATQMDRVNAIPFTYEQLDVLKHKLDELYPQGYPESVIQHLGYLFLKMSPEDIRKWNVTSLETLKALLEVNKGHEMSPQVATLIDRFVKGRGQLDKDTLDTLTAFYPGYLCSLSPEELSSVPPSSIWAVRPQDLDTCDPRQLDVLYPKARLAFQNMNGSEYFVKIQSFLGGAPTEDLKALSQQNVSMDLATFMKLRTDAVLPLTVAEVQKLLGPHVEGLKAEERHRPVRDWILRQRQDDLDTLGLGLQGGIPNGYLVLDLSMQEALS
- assay_remarks: SPR (Biacore), Fab on directly immobilized mesothelin

Find the recorded koff belonging to MOR06631 Fab (Fab, V domains shown, Purified Fab) VH: QVQLVQSGAEVKKPGESLKISCKGSGYSFTNYWIGWVRQMPGKGLEWMGFIWPVDSWTQYSPSFQGQVTISADKSISTAYLQWSSLKASDTAMYYCARYGHGMYGGALDVWGQGTLVTVSS VL: DIVLTQSPATLSLSPGERATLSCRASQSVRSSRLAWYQQKPGQAPRLLIYGASKRATGVPARFSGSGSGTDFTLTISSLEPEDFATYYCQQYYDFPPTFGQGTKVEIKR and report it.
1.4e-05 s⁻¹

Entry to check: MOR06669 Fab (Fab, V domains shown, Purified Fab) VH: QVQLVQSGAEVKKPGESLKISCKGSGYSFTNYWIGWVRQMPGKGLEWMGIIWPIDSFTQYSPSFQGQVTISADKSISTAYLQWSSLKASDTAMYYCARYGHGMYGGALDVWGQGTLVTVSS VL: DIVLTQSPATLSLSPGERATLSCRASQSVRSSRLAWYQQKPGQAPRLLIYGASKRATGVPARFSGSGSGTDFTLTISSLEPEDFATYYCQQYYDFPPTFGQGTKVEIKR
8.1e-05 s⁻¹
